system tested: Gal(b1-3)[Fuc(a1-4)]GlcNAc(b1-2)Man
assay text: glycan array binding signal (z-score within array); higher = stronger binding
experimental context: glycan notation: IUPAC condensed, linker removed
This excerpt belongs to a sample that is enriched for the strongest signals.
property label: glycan array binding signal (z-score)
Numbers only.

Below: 3 binders and their reported glycan array binding signal (z-score).
[
  {
    "binder": "Epa3to2 (Candida glabrata) (protein) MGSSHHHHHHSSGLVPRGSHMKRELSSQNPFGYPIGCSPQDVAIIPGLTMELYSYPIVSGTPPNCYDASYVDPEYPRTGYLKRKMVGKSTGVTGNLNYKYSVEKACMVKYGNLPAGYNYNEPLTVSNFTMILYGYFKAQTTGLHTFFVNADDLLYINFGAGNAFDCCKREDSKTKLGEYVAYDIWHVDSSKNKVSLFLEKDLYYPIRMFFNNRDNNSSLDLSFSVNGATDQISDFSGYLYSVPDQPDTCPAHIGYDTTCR",
    "glycan array binding signal (z-score)": 0.761
  },
  {
    "binder": "Epa6 (Candida glabrata), Q6DTM7_CANGB (protein) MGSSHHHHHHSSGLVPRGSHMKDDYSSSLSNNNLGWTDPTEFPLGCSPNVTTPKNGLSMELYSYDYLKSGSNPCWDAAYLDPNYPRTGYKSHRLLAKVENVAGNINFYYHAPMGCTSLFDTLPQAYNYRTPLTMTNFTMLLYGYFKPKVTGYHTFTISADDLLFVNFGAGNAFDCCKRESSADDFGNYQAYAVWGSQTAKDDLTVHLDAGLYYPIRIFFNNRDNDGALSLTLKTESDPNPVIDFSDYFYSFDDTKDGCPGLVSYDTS",
    "glycan array binding signal (z-score)": -0.112
  },
  {
    "binder": "Protein L(B1-B4) (Finegoldia magna), Q51912 (protein) KEETPETPETDSEEEVTIKANLIFANGSTQTAEFKGTFEKATSEAYAYADTLKKDNGEYTVDVADKGYTLNIKFAGKEKTPEEPKEEVTIKANLIYADGKTQTAEFKGTFEEATAEAYRYADALKKDNGEYTVDVADKGYTLNIKFAGKEKTPEEPKEEVTIKANLIYADGKTQTAEFKGTFEEATAEAYRYADLLAKENGKYTVDVADKGYTLNIKFAGKEKTPEEPKEEVTIKANLIYADGKTQTAEFKGTFAEATAEAYRYADLLAKENGKYTADLEDGGYTINIRFAG",
    "glycan array binding signal (z-score)": 1.5
  }
]

# evaluate next
Ask | Consider the binder shown here: AidA (Burkholderia cenocepacia) (protein) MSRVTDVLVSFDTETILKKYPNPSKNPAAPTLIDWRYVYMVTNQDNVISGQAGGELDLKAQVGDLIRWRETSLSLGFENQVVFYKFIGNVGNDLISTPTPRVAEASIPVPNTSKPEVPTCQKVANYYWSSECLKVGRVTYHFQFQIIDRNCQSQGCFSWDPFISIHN What is its recorded glycan array binding signal (z-score)?
Reply | -0.108

Cited source: the supplement of paper PMC8728848
